Tested on: Amaranthus retoflexus (AMARE)
Assay: B2 Post-Emergence Efficacy Test 2
Format: in vivo
Details: 250 g/ha, after 13 days
READOUT LABEL: percentage damage caused to the plant, five point scale, AMARE

Reference set, count: 5
COMPOUND	SYSTEM NAME	MEAS VALUE
Cc1nn(C)c(=O)c(-c2c(F)ccc(Cl)c2CCc2ccc3ncsc3c2)c1O [Compound 1.349]	Amaranthus retoflexus (AMARE)	4 (4=60-79%)
Cc1nn(C)c(=O)c(-c2c(F)ccc(Cl)c2CCc2cccc3ccccc23)c1O [Compound 1.044]	Amaranthus retoflexus (AMARE)	3 (3=40-59%)
Cc1nn(C)c(=O)c(-c2c(F)ccc(Cl)c2CCc2nn(C)c3ccccc23)c1O [Compound 1.344]	Amaranthus retoflexus (AMARE)	3 (3=40-59%)
Cc1nn(C)c(=O)c(-c2c(F)ccc(Cl)c2CCc2ccc3cnn(C)c3c2)c1O [Compound 1.353]	Amaranthus retoflexus (AMARE)	4 (4=60-79%)
Cc1nn(C)c(=O)c(-c2c(F)ccc(Cl)c2CCc2ccc3c(C)noc3c2)c1O [Compound 1.351]	Amaranthus retoflexus (AMARE)	5 (5=80-100%)

[in] Which measured percentage damage caused to the plant, five point scale, AMARE value corresponds to Cc1nn(C)c(=O)c(-c2c(F)ccc(Cl)c2CCc2ccc3oc(=O)[nH]c3c2)c1O [Compound 1.352] ?
[out] 4 (4=60-79%)

[in] Any idea what its percentage damage caused to the plant, five point scale, AMARE is? The compound is Cc1nn(C)c(=O)c(-c2c(F)ccc(Cl)c2CCc2ccc3c(ccn3C)c2)c1O [Compound 1.356]
[out] 5 (5=80-100%)

[in] Can you share its percentage damage caused to the plant, five point scale, AMARE? I mean this compound: Cc1nn(C)c(=O)c(-c2c(F)ccc(Cl)c2CCc2ccc3ccn(C)c3c2)c1O [Compound 1.355]
[out] 4 (4=60-79%)

[in] State the recorded percentage damage caused to the plant, five point scale, AMARE for this entry: Cc1nn(C)c(=O)c(-c2c(F)ccc(Cl)c2CCc2ccc3ccccc3c2)c1O [Compound 1.053]
[out] 4 (4=60-79%)

[in] Look up percentage damage caused to the plant, five point scale, AMARE: Cc1nn(C)c(=O)c(-c2c(F)ccc(Cl)c2CCc2ccc3c(cnn3C)c2)c1O [Compound 1.354]
[out] 4 (4=60-79%)
